- TGT: human recombinant soluble enzyme BACE1 (Homo sapiens, UniProt P56817)
- Sequence (P56817 46-457 limits assumed): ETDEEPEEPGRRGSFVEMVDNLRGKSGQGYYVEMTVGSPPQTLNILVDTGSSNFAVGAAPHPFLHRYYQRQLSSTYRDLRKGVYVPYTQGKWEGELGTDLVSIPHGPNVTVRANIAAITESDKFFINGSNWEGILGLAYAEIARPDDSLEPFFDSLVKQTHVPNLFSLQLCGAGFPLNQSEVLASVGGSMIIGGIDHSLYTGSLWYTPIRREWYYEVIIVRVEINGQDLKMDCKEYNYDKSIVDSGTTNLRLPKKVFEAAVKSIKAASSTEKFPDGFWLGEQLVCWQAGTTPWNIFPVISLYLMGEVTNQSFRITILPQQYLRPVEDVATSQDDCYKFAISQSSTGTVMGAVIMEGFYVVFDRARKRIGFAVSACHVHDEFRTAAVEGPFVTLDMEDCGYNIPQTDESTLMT
- ASSAY COMMENT: Test 1: Inhibition of soluble BACE1 (synthetic substrate S-10-R, HPLC/UV detection of cleavage product)
- ASSAY CONTEXT: BACE1 20 nM, substrate S-10-R 350 μM, 1 hour at 37° C., sodium acetate/acetic acid buffer pH 4.5, 10% DMSO
pIC50: −log10 of the molar value.
OUTCOME MEASURE: pIC50

[I] CCCC1CCCCN1C(=O)c1cc(C(=O)N[C@@H](Cc2cc(F)cc(F)c2)[C@H](O)CNC2(c3cccc(C(F)(F)F)c3)CC2)nn1CC (some centres unmarked) [compound 53]
[II] CCN(Cc1ccccc1)NC(=O)c1cc(C(=O)N[C@@H](Cc2ccccc2)[C@H](O)CNCc2cccc(C(F)(F)F)c2)nn1CC [compound 69]
For this pair, I and II , which shows a numerically higher pIC50? Pick one and reply with its label.
I

Just for reference, patent US9102628B2 is where these values come from.
